Reported values of pIC50 for individual entries
# Assayed target: T1, human Protein S (human, UniProt P07225 42-676)
# T1 construct: Called 'full length Protein S' / 'human full-length Protein S'; It was coated on plates (ELISA), Eu-labeled (LANCE) or immobilized on a chip (Biacore); also called PS; full length Protein S
# T1 sequence: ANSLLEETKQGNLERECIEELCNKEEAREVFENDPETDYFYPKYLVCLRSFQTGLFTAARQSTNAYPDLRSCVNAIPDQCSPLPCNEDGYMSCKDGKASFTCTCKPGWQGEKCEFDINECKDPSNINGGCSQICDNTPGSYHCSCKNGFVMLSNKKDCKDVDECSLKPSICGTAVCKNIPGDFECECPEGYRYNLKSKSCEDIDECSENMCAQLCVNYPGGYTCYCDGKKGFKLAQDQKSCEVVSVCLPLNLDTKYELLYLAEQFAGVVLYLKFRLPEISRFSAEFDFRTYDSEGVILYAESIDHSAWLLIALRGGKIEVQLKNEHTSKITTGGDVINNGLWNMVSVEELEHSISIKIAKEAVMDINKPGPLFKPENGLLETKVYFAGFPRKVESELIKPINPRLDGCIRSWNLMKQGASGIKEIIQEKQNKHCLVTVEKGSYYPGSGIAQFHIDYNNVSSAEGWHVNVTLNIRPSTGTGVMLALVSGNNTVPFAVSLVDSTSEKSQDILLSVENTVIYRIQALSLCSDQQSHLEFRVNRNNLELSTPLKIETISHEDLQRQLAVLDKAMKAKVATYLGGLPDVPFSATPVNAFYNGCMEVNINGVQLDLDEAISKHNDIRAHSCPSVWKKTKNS
# Protocol description: LANCE TR-FRET; peptide added to preformed C4BP/Protein S complex; competitor C4BP
In simple prose, pIC50 is minus the logarithm base ten of a concentration in moles per litre.

Which pIC50 value is on record for Ac-TGLVSAGWYDYNFDHYREFT-NH2 (also called parent peptide JBS2572) [JBS2572] ?
8.70

State the recorded pIC50 for this entry: Ac-EYYVSAGWYDYNTDTYYEFE-NH2 [JBS3216]
9.52
